Tested on: SH-SY5Y cells
experiment.summary: Neuroprotection against rotenone/oligomycin A, pre- and co-incubation model, MTT
Type: cell-based
applied.conditions: Homo sapiens, compound 1 μM pre-incubation 24 h and co-incubation 24 h with Rot/Olig (30/10 μM), read-out: % Protection
measurement.name: inhibition at 1 µM
Don't forget the unit after the number, please.

Exam item: Answer with the recorded inhibition at 1 µM of CC(=O)NCCc1c[nH]c2ccc(OC(=O)/C=C/c3ccc(C)cc3)cc12 [Compound 3] only.
Marked response: 55.1%

Exam item: Complete the entry with inhibition at 1 µM for COc1ccc2[nH]cc(CCNC(C)=O)c2c1 [Melatonin, reference compound]
Marked response: 31.1%

Exam item: Identify inhibition at 1 µM associated with the compound COc1cc(/C=C/C(=O)Oc2ccc3[nH]cc(CCNC(C)=O)c3c2)ccc1O [Compound 8]
Marked response: 41.7%

Exam item: Using the record for COc1ccccc1/C=C/C(=O)Oc1ccc2[nH]cc(CCNC(C)=O)c2c1 [Compound 4] , state its measured inhibition at 1 µM.
Marked response: 28.1%

Exam item: Find the measured inhibition at 1 µM of CC(=O)NCCc1c[nH]c2ccc(OC(=O)/C=C/c3ccc(Cl)c(Cl)c3)cc12 [Compound 12] and report it.
Marked response: 27.8%

Exam item: Identify measured inhibition at 1 µM associated with CC(=O)NCCc1c[nH]c2ccc(OC(=O)/C=C/c3ccccc3)cc12 [Compound 2]
Marked response: 48%

Exam item: Return value of inhibition at 1 µM for input CC(=O)NCCc1c[nH]c2ccc(OC(=O)/C=C/c3ccc(C(F)(F)F)cc3)cc12 [Compound 15] , no commentary.
Marked response: 47.6%

Exam item: Name the recorded inhibition at 1 µM of the compound listed here: COc1ccc(/C=C/C(=O)Oc2ccc3[nH]cc(CCNC(C)=O)c3c2)cc1 [Compound 6]
Marked response: 44.1%

Exam item: Return the recorded inhibition at 1 µM value; entry: CC(=O)NCCc1c[nH]c2ccc(OC(=O)/C=C/c3ccc(Br)cc3)cc12 [Compound 10]
Marked response: 40.8%

Exam item: State its inhibition at 1 µM: COc1cccc(/C=C/C(=O)Oc2ccc3[nH]cc(CCNC(C)=O)c3c2)c1 [Compound 5]
Marked response: 57.6%

Exam item: Assign inhibition at 1 µM to the following record: C/C=C/C(=O)Oc1ccc2[nH]cc(CCNC(C)=O)c2c1 [Compound 1]
Marked response: 28.8%

Exam item: Indicate its recorded inhibition at 1 µM; the compound in question is CC(=O)NCCc1c[nH]c2ccc(OC(=O)/C=C/c3ccccc3C(F)(F)F)cc12 [Compound 13]
Marked response: 50.2%

Exam item: Kindly indicate its recorded inhibition at 1 µM. Item: CC(=O)NCCc1c[nH]c2ccc(OC(=O)/C=C/c3ccc(O)cc3)cc12 [Compound 7]
Marked response: 39.8%

###

So I've got a bunch of compounds here, and I need their viability at 1 µM values.
Test system: SH-SY5Y cells
experiment.summary: Neuroprotection against rotenone/oligomycin A, pre-incubation model, MTT
Assay type: cell-based
applied.conditions: Homo sapiens, compound 1 μM pre-incubation 24 h, then Rot/Olig (30/10 μM), read-out: % Survival

Exam item: # lookup: SH-SY5Y cells viability at 1 µM, key = COc1cccc(/C=C/C(=O)Oc2ccc3[nH]cc(CCNC(C)=O)c3c2)c1 [Compound 5]
Marked response: 70.2%

Exam item: Determine reported viability at 1 µM for CC(=O)NCCc1c[nH]c2ccc(OC(=O)/C=C/c3ccc(Cl)c(Cl)c3)cc12 [Compound 12] ; test system: SH-SY5Y cells.
Marked response: 70.1%

Exam item: Look up and report viability at 1 µM, with SH-SY5Y cells as system, for COc1ccc(/C=C/C(=O)Oc2ccc3[nH]cc(CCNC(C)=O)c3c2)cc1 [Compound 6]
Marked response: 70%

Exam item: Please tell me the measured viability at 1 µM for CC(=O)NCCc1c[nH]c2ccc(OC(=O)/C=C/c3ccc([N+](=O)[O-])cc3)cc12 [Compound 16] ; system: SH-SY5Y cells.
Marked response: 68.5%
